Here, each record is paired with measured %B/B0 data.
- Tested on: Antibody to Immunogen VI
- Format: binding, sheep
- run-parameters: Cross-reactants at 100 ng/ml; 1000ng/ml; single level of cross reactants
observable: %B/B0

> print(dat)
                                   compound             target.entity  observable  result
1         CCCCCn1ccc(C(=O)c2cccc3ccccc23)c1  Antibody to Immunogen VI       %B/B0  86.70%
2  O=C(c1cccc(I)c1)c1cn(CCCCCF)c2ccccc12 [AM-694 3-iodo isomer]  Antibody to Immunogen VI       %B/B0  44.38%
3  CCCCCn1cc(C(=O)c2ccc(C)c3ccccc23)c2ccccc21  Antibody to Immunogen VI       %B/B0  75.29%
4  COc1ccc(C(=O)c2c(C)n(CCN3CCOCC3)c3ccccc23)cc1  Antibody to Immunogen VI       %B/B0  23.84%
5  CCCCCCCn1cc(C(=O)c2cccc3ccccc23)c2ccccc21  Antibody to Immunogen VI       %B/B0  82.41%
6  C=CCCCn1cc(C(=O)c2cccc3ccccc23)c2ccccc21  Antibody to Immunogen VI       %B/B0  75.42%
7  CCCCCn1cc(C(=O)c2cccc3ccccc23)c2ccc(O)cc21  Antibody to Immunogen VI       %B/B0  91.26%
8    CCCCCn1cc(C(=O)Cc2cccc(OC)c2)c2ccccc21  Antibody to Immunogen VI       %B/B0  71.16%
9  CCc1ccc(C(=O)c2cn(CCCCCC(=O)O)c3ccccc23)c2ccccc12  Antibody to Immunogen VI       %B/B0  63.50%

----------
Below is a list of entries, each paired with its recorded %B/B0 value.
- Tested on: Antibody to Immunogen VI
- Assay type: binding, sheep
- run-parameters: Cross-reactants at 100 ng/ml; 1000ng/ml; single level of cross reactants
observable: %B/B0 (%)

> print(dat)
                                   compound             target.entity  result.number
1  CCCCCn1cc(C(=O)c2ccc(OC)cc2)c2ccccc21 [RCS-4]  Antibody to Immunogen VI           4.90
2  O=C(c1ccccc1I)c1cn(CCCCCF)c2ccccc12 [AM-694]  Antibody to Immunogen VI          70.77
3  CCCCCc1cc(O)c2c(c1)OC(C)(C)[C@@H]1CCC(C)=C[C@@H]21 [Delta 9 THC]  Antibody to Immunogen VI          94.84
4  CCCCCn1cc(C(=O)c2cccc3ccccc23)c2ccc(OC)cc21 [JWH-018 6-methoxyindole analogue]  Antibody to Immunogen VI          86.92
5  OCCc1c[nH]c2ccc(O)cc12 [5-hydroxytryptophol]  Antibody to Immunogen VI          95.67
6  CCCn1c(C)c(C(=O)c2cccc3ccccc23)c2ccccc21 [JWH-015]  Antibody to Immunogen VI          77.06
7  CCCCCCCC(C)(C)c1ccc(C2CCCC(O)C2)c(O)c1 (stereo not drawn)  Antibody to Immunogen VI         100.84
8  CCCCCn1c(C)c(C(=O)c2cccc3ccccc23)c2ccccc21 [JWH-007]  Antibody to Immunogen VI          81.74
9  CCCCCCC(C)(C)c1ccc([C@@H]2C[C@H](O)CC[C@H]2CCCO)c(O)c1 (racemic) [((+-)-CP 55,940)]  Antibody to Immunogen VI          98.86
